Cited source: PubChem BioAssay (NCI)

Tested on: M14 melanoma
ASSAY_REMARKS: NCI tumour cell line growth inhibition, 48 h
// reported TGI per item

COMPOUND	TARGET_DESC	TGI
COc1cccc2c(=O)c3c(sc12)c(NCCCNCCO)nc1ccccc13	M14 melanoma	3.22 µM
CC(C)=CCC[C@@H](C)C1=C(O)C(N)=C(C)C(=O)C1=O	M14 melanoma	> 73.2 µM
COc1ccc(N2C(=O)C3c4[nH]c5ccccc5c4C4CCCCCCCCCC4C3C2=O)cc1 (stereo not drawn)	M14 melanoma	> 10 µM
Fc1ccc2nc(-c3cc(-c4ccc5c(c4)OCO5)n[nH]3)[nH]c2c1	M14 melanoma	> 32.5 µM
O=[N+]([O-])/C(Cl)=C(\NCCN/C(C(Cl)=C(Cl)Cl)=C(/Cl)[N+](=O)[O-])C(Cl)=C(Cl)Cl	M14 melanoma	> 100 µM
Cc1cc(NS(=O)(=O)c2ccc(NC(NC(=O)C(C(F)(F)F)C(F)(F)F)(C(F)(F)F)C(F)(F)F)cc2)no1	M14 melanoma	> 100 µM
COc1ccc(-n2nc(C)c3c(Nc4ccc(NC(=O)Nc5ccc(Cl)c(C(F)(F)F)c5)cc4)ncnc32)cc1	M14 melanoma	4.32 µM
CC1c2ccccc2N=C2SC(=S)N3CCN=C3N21 (stereo not drawn)	M14 melanoma	> 100 µM
CC(C)N1CN(c2ccccc2)C2(CCN(CCCC(=O)c3ccc(F)cc3)CC2)C1=O	M14 melanoma	31.1 µM
CCCCCCCCCCCC1CC(=O)NCCCN(C)CCCCN(C)CCCN1C (stereo not drawn)	M14 melanoma	3.24 µM
O=C1CS(=O)(=O)C(c2cccc(Oc3ccccc3)c2)N1c1cc(Cl)ccc1Cl (stereo not drawn)	M14 melanoma	43.1 µM
Cc1ccc(C)c(N2C(=O)C(=O)C(c3nc4ccccc4s3)C(=Nc3cccc4c(=O)[nH][nH]c(=O)c34)C2=O)c1 (stereo not drawn)	M14 melanoma	> 100 µM
COC(=O)N1N=C(c2ccccc2)C1c1ccccc1 (stereo not drawn)	M14 melanoma	> 100 µM
O=C(O)c1ccccc1C(=O)c1ccc2c(c1)Cc1ccccc1-2	M14 melanoma	> 100 µM
Cc1c2ccncc2c(C)c2c1[nH]c1ccc(O)c(OCC(F)(F)F)c12	M14 melanoma	19.7 µM
CC1(C)CC(=O)C(CC2C(=O)c3ccccc3C2=O)C(=O)C1	M14 melanoma	> 100 µM
N#CC(C#N)=c1c2nsnc2c(=C(C#N)C#N)c2nsnc12	M14 melanoma	3.54 µM
C[C@H]1OC(=O)[C@@H]2N=NN(Cc3ccccc3)[C@H]12	M14 melanoma	> 100 µM
O=C1/C(=C/c2cccc([N+](=O)[O-])c2)Sc2scc(-c3ccc([N+](=O)[O-])cc3)[n+]21	M14 melanoma	> 100 µM
Nc1nc(Nc2ccccc2)sc1C(=O)c1ccco1	M14 melanoma	36.9 µM
COC(=O)[C@H](Cc1ccccc1)NC(=O)N(CCC#N)CCN(C(=O)N[C@@H](Cc1ccccc1)C(=O)OC)c1ccccc1	M14 melanoma	55.1 µM
C/C1=C\CC[C@@](C)(O)[C@@H]2C[C@H](CC/C(C)=C/CC1)C1(CC1)C(=O)O2	M14 melanoma	91.6 µM
C[C@]12C/C(=C/O)C(=O)C(O)=C1CC[C@@H]1C2CC[C@@]2(C)C1CC[C@@H]2O (stereo partly drawn)	M14 melanoma	38.1 µM
CCCCCCCCCCCCCCCCCCOCC(COCCOCC[N+]1(CCCCCC(=O)[O-])CCCC1)Oc1ncccn1 (stereo not drawn)	M14 melanoma	22.7 µM
C/C(=C\CO)CC/C=C(\C)CNc1ccc([N+](=O)[O-])cc1	M14 melanoma	> 100 µM
CCNCCNc1cc(-c2ccc(C#N)cc2)c(C#N)c2nc3ccccc3n12	M14 melanoma	3.79 µM
CN1N=C(c2ccncc2)OC1c1ccccc1F (stereo not drawn)	M14 melanoma	> 100 µM
O=C1c2ccccc2-c2c1c1c(NCCCO)nc3ccccc3c1n2Cc1ccccc1	M14 melanoma	58.2 µM
CCOC(=O)C1=CC(C)(C(=O)OCC)Nc2c(nc(N)[nH]c2=O)N1 (stereo not drawn)	M14 melanoma	> 10 µM
CCOC(=O)c1ccc(Nc2nc3ccc(C(F)(F)F)cc3nc2C(=O)OCC)cc1	M14 melanoma	> 100 µM
Nc1cc(-c2ccc(Cl)cc2)nn1-c1nnc(/C=C/c2ccco2)c(=O)[nH]1	M14 melanoma	30.6 µM
CC(=O)n1c(=O)c2cc3c(=O)n(-c4cccc(C#N)c4)c(=O)c3cc2c1=O	M14 melanoma	> 100 µM
Cc1cccc(C)c1N1C(=O)C(=O)C(c2nc3ccccc3s2)C(=Nc2cccc3c(=O)[nH][nH]c(=O)c23)C1=O (stereo not drawn)	M14 melanoma	> 100 µM
COC1C(O)C(O[C@H]2CC[C@@]3(C)C(CC[C@@H]4[C@@H]3CC[C@]3(C)[C@@H](C(C)OC5OC(CO)C(O)C(O)C5O)CC[C@]43O)C2)OC(C)C1OC1OC(CO)C(O)C(O)C1O (stereo partly drawn)	M14 melanoma	> 100 µM
OCc1ccc(N2CCOCC2)cc1Cl	M14 melanoma	> 100 µM
COP(=O)(OC)C(Nc1ccc(Cc2ccc(NC(c3ccco3)P(=O)(OC)OC)cc2)cc1)c1ccco1 (stereo not drawn)	M14 melanoma	> 100 µM
c1ccc([P+](CCCCCCCC[P+](c2ccccc2)(c2ccccc2)c2ccccc2)(c2ccccc2)c2ccccc2)cc1	M14 melanoma	> 100 µM
Cc1cc(O)c(-c2cc(O)c(C)cc2O)cc1O	M14 melanoma	22.9 µM
